- ASSAY PROTOCOL: Plasma pharmacokinetics of lorlatinib at steady state (LC-MS/MS, non-compartmental analysis)
- Type: in vivo, human
- TEST PARAMETERS: human, plasma, oral, 60 mg/m2, Cohort A1, 60 mg/m2 per dose, C1D15, Median, N 3; read-out: Tmax
MEASUREMENT LABEL: Tmax (h)

compound_structure=C[C@H]1Oc2cc(cnc2N)-c2c(nn(C)c2C#N)CN(C)C(=O)c2ccc(F)cc21 measurement_label=Tmax obs_value=2

----------
- ASSAY PROTOCOL: Plasma pharmacokinetics of lorlatinib at steady state (LC-MS/MS, non-compartmental analysis)
- Type: in vivo, human
- TEST PARAMETERS: human, in vivo, 115 mg/m2, steady state; Cohort B2 (with topotecan/cyclophosphamide); 115 mg/m^2 QD; (CV); read-out: AUCtau
MEASUREMENT LABEL: AUC (ng·h/mL)

compound_structure=C[C@H]1Oc2cc(cnc2N)-c2c(nn(C)c2C#N)CN(C)C(=O)c2ccc(F)cc21 obs_value=7950

----------
- ASSAY PROTOCOL: Plasma pharmacokinetics of lorlatinib at steady state (LC-MS/MS, non-compartmental analysis)
- Type: in vivo, human
- TEST PARAMETERS: Cycle 1 Day 1, Cohort A1, 95 mg/m2 per dose
- Excerpt: Lorlatinib was isolated from human plasma by a liquid-iquid extraction procedure. […] A linear-log trapezoidal method was used [NT] A best-fit method was used to estimate terminal elimination and to extrapolate any plasma concentration versus time profiles to compute [NT].
MEASUREMENT LABEL: Tlast

compound="C[C@H]1Oc2cc(cnc2N)-c2c(nn(C)c2C#N)CN(C)C(=O)c2ccc(F)cc21 [Lorlatinib]" obs_value="24 h"

----------
- ASSAY PROTOCOL: Plasma pharmacokinetics of lorlatinib at steady state (LC-MS/MS, non-compartmental analysis)
- Type: in vivo, human
- TEST PARAMETERS: human, plasma, oral, 95 mg/m2, Cohort B2, 95 mg/m2 per dose, C1D15, individual patient; read-out: Tmax
MEASUREMENT LABEL: Tmax (h)

compound_structure=C[C@H]1Oc2cc(cnc2N)-c2c(nn(C)c2C#N)CN(C)C(=O)c2ccc(F)cc21 unit_of_measure=h obs_value=4

----------
- ASSAY PROTOCOL: Plasma pharmacokinetics of lorlatinib at steady state (LC-MS/MS, non-compartmental analysis)
- Assay type: in vivo, human
- TEST PARAMETERS: human, plasma, oral, 95 mg/m2, Cycle 1 Day 1, Cohort B2, 95 mg/m2 per dose; read-out: Tmax
MEASUREMENT LABEL: Tmax (h)

compound_structure=C[C@H]1Oc2cc(cnc2N)-c2c(nn(C)c2C#N)CN(C)C(=O)c2ccc(F)cc21 measurement_label=Tmax unit_of_measure=h obs_value=2

----------
- ASSAY PROTOCOL: Plasma pharmacokinetics of lorlatinib at steady state (LC-MS/MS, non-compartmental analysis)
- Type: in vivo, human
- TEST PARAMETERS: human, plasma, oral, 95 mg/m2, Cohort B2, 95 mg/m2 per dose, C1D15, Geometric Mean, N 2; read-out: AUC_TAU
MEASUREMENT LABEL: AUC (ng·h/mL)

compound_structure=C[C@H]1Oc2cc(cnc2N)-c2c(nn(C)c2C#N)CN(C)C(=O)c2ccc(F)cc21 measurement_label=AUC unit_of_measure=ng·h/mL obs_value=6690

----------
- ASSAY PROTOCOL: Plasma pharmacokinetics of lorlatinib at steady state (LC-MS/MS, non-compartmental analysis)
- Assay type: in vivo, human
- TEST PARAMETERS: human, in vivo, 115 mg/m2, Cycle 1 Day 1; Cohort A1; 115 mg/m2 per dose; individual patients
MEASUREMENT LABEL: AUC(0-t)

compound_structure=C[C@H]1Oc2cc(cnc2N)-c2c(nn(C)c2C#N)CN(C)C(=O)c2ccc(F)cc21 measurement_label=AUC(0-t) obs_value="14700 ng·h/mL"
